Target: T1, ZFP SBS#278 (synthetic)
T1 chain: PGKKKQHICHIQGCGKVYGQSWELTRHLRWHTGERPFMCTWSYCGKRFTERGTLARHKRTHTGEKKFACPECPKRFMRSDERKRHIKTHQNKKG
Test: EMSA
Conditions: tags: MBP fusion
EXPERIMENTAL_READOUT: Kd
Could you kindly put the unit after your number?

Inquiry: Fill in the blank: the reported Kd of GCGGCCGCG (dsDNA) DNA 1: GCGGCCGCG DNA 2: CGCGGCCGC is ____.
Reply text: 190 nM
